Origin of values: patent US9695222B2

- run.description: physchem
- run.conditions: water, pH 5
Non-standard residues stand in square brackets, D forms with d. Residues, ends and D or L forms follow the SMILES beside them. *: point of attachment. PEG4 = NCCOCCOCCOCCOCCC(=O)O; Octanoyl = CCCCCCCC(=O)*
Reported solubility values follow for various molecules

CCCCCCCC(=O)OC[C@H](NC(=O)[C@H](CO)NC(=O)CN)C(=O)N[C@@H](Cc1ccccc1)C(=O)N[C@@H](CC(C)C)C(=O)NCCOCCOCCOCCOCCC(=O)N[C@@H](CS)C(N)=O [PEG-Ghr5, GSS(octanoyl)FL-PEG4-C-NH2] (H-GSS(Octanoyl)FL[PEG4]C-NH2)	> 1000 µg/mL
CCCC(=O)OC[C@H](NC(=O)[C@H](CO)NC(=O)CN)C(=O)N[C@@H](Cc1ccccc1)C(=O)N[C@@H](CC(C)C)C(=O)N[C@@H](CO)C(=O)N1CCC[C@H]1C(=O)N[C@@H](CCC(=O)O)C(=O)N[C@@H](Cc1c[nH]cn1)C(=O)N[C@@H](CCC(N)=O)C(=O)N[C@@H](CS)C(N)=O [Ghr1]	> 1000 µg/mL

Field: next molecule
Request the reported solubility associated with CC(C)C[C@H](NC(=O)[C@H](CCCCN)NC(=O)[C@H](C)NC(=O)[C@@H]1CCCN1C(=O)[C@@H]1CCCN1C(=O)[C@H](CCCCN)NC(=O)[C@H](CCCCN)NC(=O)[C@H](CO)NC(=O)[C@H](CCC(=O)O)NC(=O)[C@H](CCCCN)NC(=O)[C@H](CCCNC(=N)N)NC(=O)[C@H](CCC(N)=O)NC(=O)[C@H](CCC(N)=O)NC(=O)[C@@H](N)CS)C(=O)N[C@@H](CCC(N)=O)C(=O)N1CCC[C@H]1C(=O)N[C@@H](CCCNC(=N)N)C(N)=O [Ghr2] > 1000 µg/mL
